Measured Euclidean distance values are reported for all entries that follow.
Tested on: OVCAR4
Assay: Euclidean distance of Cell Painting phenotypic profile (signed KS, 77 features) to DMSO centroid (dimensionless distance); 5 or 10 uM (library dependent); higher = stronger phenotypic change vs DMSO (phenoactivity)
Details: 48 h
Answer as a number with no unit attached.

(Q) // Euclidean distance lookup, key: `O=c1c(-c2ccc(O)cc2)coc2cc(O)cc(O)c12`
(A) 1.13

(Q) // Euclidean distance lookup, key: `N=C(NCCCCCCNC(=N)NC(=N)Nc1ccc(Cl)cc1)NC(=N)Nc1ccc(Cl)cc1`
(A) 3.25

* * *

Measured Euclidean distance values are reported for all entries that follow.
System: OVCAR4
Assay: Euclidean distance of Cell Painting phenotypic profile (signed KS, 77 features) to DMSO centroid (dimensionless distance); 5 or 10 uM (library dependent); higher = stronger phenotypic change vs DMSO (phenoactivity)
Settings: 48 h
Where a name gives a salt, the structure may show the parent alone.
Answer as a number with no unit attached.

molecule="CCCN[C@H]1CCc2nc(N)sc2C1 [Pramipexole]" recorded_value=1.19
molecule=COc1ccc(C[C@H](NC(=O)[C@H](C)NC(=O)CN2CCOCC2)C(=O)N[C@@H](Cc2ccccc2)C(=O)[C@@]2(C)CO2)cc1 recorded_value=6.2
molecule="CC1(C)S[C@@H]2[C@H](NC(=O)C(C(=O)O)c3ccccc3)C(=O)N2[C@H]1C(=O)O (some centres undefined) [Carbenicillin disodium]" recorded_value=1.76

(Q) // Euclidean distance lookup, key: CCc1c2c(nc3ccc(OC(=O)N4CCC(N5CCCCC5)CC4)cc13)-c1cc3c(c(=O)n1C2)COC(=O)[C@]3(O)CC [Irinotecan HCl Trihydrate]
(A) 3.1

* * *

Tested on: FB
Assay: Euclidean distance of Cell Painting phenotypic profile (signed KS, 77 features) to DMSO centroid (dimensionless distance); 5 or 10 uM (library dependent); higher = stronger phenotypic change vs DMSO (phenoactivity)
Details: 48 h
Lab note: anything with Euclidean distance at or over 0.7 counts as True; the rest go in False.

(Q) Evaluate `COc1cc(NC(=O)c2ccccn2)ccc1Cl` : Euclidean distance at minimum 0.7?
(A) True

(Q) Evaluate `Cn1cnc(N)c2ncnc1-2` : Euclidean distance at minimum 0.7?
(A) True

(Q) Evaluate `COc1ccc(-c2cnc3c(-c4cccc5ncccc45)cnn3c2)cc1` : Euclidean distance at minimum 0.7?
(A) False

(Q) Evaluate `FC(F)c1nc2ccccc2n1-c1nc(N2CCOCC2)nc(N2CCOCC2)n1` : Euclidean distance at minimum 0.7?
(A) True

(Q) Evaluate COc1cccc(OC)c1C(=O)OCc1cc(O)ccc1O[C@@H]1O[C@H](CO)[C@@H](O)[C@H](O)[C@H]1O [Curculigoside] : Euclidean distance at minimum 0.7?
(A) False

* * *

System: FB
Assay: Euclidean distance of Cell Painting phenotypic profile (signed KS, 77 features) to DMSO centroid (dimensionless distance); 5 or 10 uM (library dependent); higher = stronger phenotypic change vs DMSO (phenoactivity)
Settings: 48 h
Assign classes using reported Euclidean distance values and the ranges low bracket (below 1), middle bracket (1 to below 2), high bracket (2 or more), please.

Check out these entries, answers already filled in.
compound="O=C(O)C(O)C(O)C(=O)O (stereo not drawn)" target_system=FB assigned_category="middle bracket"
compound=COc1c(N2C[C@@H]3CCCN[C@@H]3C2)c(F)cc2c(=O)c(C(=O)O)cn(C3CC3)c12 target_system=FB assigned_category="middle bracket"

(Q) Band for the recorded Euclidean distance of O=C(NC(Cc1cc(=O)[nH]c2ccccc12)C(=O)O)c1ccc(Cl)cc1 (stereo not drawn) [Rebamipide] ?
(A) low bracket

(Q) Band for the recorded Euclidean distance of `N[C@@H](CCC(=O)N[C@@H](CS)C(=O)NCC(=O)O)C(=O)O` ?
(A) middle bracket

(Q) Band for the recorded Euclidean distance of `CCNC(=O)Nc1ccc(-c2nc3c(c(N4CCOC[C@@H]4C)n2)CCN(C2COC2)C3)cc1` ?
(A) high bracket
